As shown below, each of these molecules has a reported log10 of IC50 value.
System: MRC5
Measurement notes: Cytotoxicity against human MRC5 cells after 7 days by MTT assay
Assay type: cell-based
Condition set: MRC5, 168 h
Kindly note that the scale is log10 and the underlying IC50 is in µg/mL.

INSERT INTO measurements (query_smiles, measured_number) VALUES
  ('C[C@@H](O)CC(=O)O[C@@H]1[C@H]2c3cc4c(cc3CN3CCC(=C[C@@H]1O)[C@H]23)OCO4', 0.80);

**Query** Consider the molecule "CCCC(=O)O[C@H]1[C@H]2c3cc4c(cc3CN3CCC(=C[C@@H]1O)[C@H]23)OCO4" and give its measured log10 of IC50.
**Result** 0.56

**Query** Consider the molecule "CC(=O)O[C@H]1[C@H]2c3cc4c(cc3CN3CCC(=C[C@@H]1OC(C)=O)[C@H]23)OCO4" and give its measured log10 of IC50.
**Result** 1.26

**Query** Consider the molecule "N=C(N)c1ccc(OCCCCCOc2ccc(C(=N)N)cc2)cc1" and give its measured log10 of IC50.
**Result** 0.76

**Query** Consider the molecule "CC(=O)O[C@H]1C=C2CCN3Cc4cc5c(cc4[C@H]([C@@H]1O)[C@@H]23)OCO5" and give its measured log10 of IC50.
**Result** 0.79

**Query** Consider the molecule "CCC(=O)O[C@H]1[C@H]2c3cc4c(cc3CN3CCC(=C[C@@H]1O)[C@H]23)OCO4" and give its measured log10 of IC50.
**Result** 0.70

**Query** Consider the molecule "C[C@H](O)CC(=O)O[C@H]1[C@H]2c3cc4c(cc3CN3CCC(=C[C@@H]1O)[C@H]23)OCO4" and give its measured log10 of IC50.
**Result** 0.91

**Query** Consider the molecule "CC(=O)O[C@H]1[C@H]2c3cc4c(cc3CN3CCC(=C[C@@H]1O)[C@H]23)OCO4" and give its measured log10 of IC50.
**Result** 0.11

---

Measurement notes: Selectivity index ratio IC50 for human MRC5 cells to IC50 for Plasmodium falciparum FCR3
Format: functional
As shown below, each of these compounds has a reported Ratio IC50 value.
# output: bare number, no unit

INSERT INTO assay_data (query_smiles, result_type, measured_number) VALUES
  ('CCCC(=O)O[C@H]1[C@H]2c3cc4c(cc3CN3CCC(=C[C@@H]1O)[C@H]23)OCO4', 'Ratio IC50', 11.3),
  ('C[C@H](O)CC(=O)O[C@H]1[C@H]2c3cc4c(cc3CN3CCC(=C[C@@H]1O)[C@H]23)OCO4', 'Ratio IC50', 18),
  ('C[C@@H](O)CC(=O)O[C@@H]1[C@H]2c3cc4c(cc3CN3CCC(=C[C@@H]1O)[C@H]23)OCO4', 'Ratio IC50', 13);

Consider now this further compound.
**Query** Consider the compound "C[C@@H]1CC[C@H]2[C@@H](C)C(=O)O[C@@H]3O[C@@]4(C)CC[C@@H]1[C@]32OO4" and give its measured Ratio IC50.
**Result** 7528.3

---

Tested on: Plasmodium falciparum
Measurement notes: Antimalarial activity against drug-sensitive Plasmodium falciparum FCR3 infected human erythrocytes after 72 hrs
Assay type: functional, organism-based
Condition set: FCR3, 72 h
Result type: IC50 (µg/mL)
Please state the figure in µg/mL; there is no need to write the unit.

INSERT INTO results (query_smiles, target_entity, result_type, measured_number) VALUES
  ('CCCC(=O)O[C@H]1[C@H]2c3cc4c(cc3CN3CCC(=C[C@@H]1O)[C@H]23)OCO4', 'Plasmodium falciparum', 'IC50', 0.32),
  ('CC(=O)O[C@H]1[C@H]2c3cc4c(cc3CN3CCC(=C[C@@H]1O)[C@H]23)OCO4', 'Plasmodium falciparum', 'IC50', 0.3),
  ('C[C@H](O)CC(=O)O[C@H]1[C@H]2c3cc4c(cc3CN3CCC(=C[C@@H]1O)[C@H]23)OCO4', 'Plasmodium falciparum', 'IC50', 0.45),
  ('CCCC(=O)O[C@H]1[C@H]2c3cc4c(cc3CN3CCC(=C[C@@H]1OC(=O)CCC)[C@H]23)OCO4', 'Plasmodium falciparum', 'IC50', 0.53),
  ('C[C@@H]1CC[C@H]2[C@@H](C)C(=O)O[C@@H]3O[C@@]4(C)CC[C@@H]1[C@]32OO4', 'Plasmodium falciparum', 'IC50', 0.006);

**Query** Consider the compound "C[C@@H](O)CC(=O)O[C@@H]1[C@H]2c3cc4c(cc3CN3CCC(=C[C@@H]1O)[C@H]23)OCO4" and give its measured IC50.
**Result** 0.49

**Query** Consider the compound "CCC(=O)O[C@H]1[C@H]2c3cc4c(cc3CN3CCC(=C[C@@H]1O)[C@H]23)OCO4" and give its measured IC50.
**Result** 0.3

---

As shown below, each of these molecules has a reported Ratio IC50 value.
Measurement notes: Selectivity index ratio IC50 for human MRC5 cells to IC50 for Plasmodium falciparum FCR3
Assay type: functional
# output: bare number, no unit

Before answering, review these 2 worked examples.
INSERT INTO results (query_smiles, result_type, measured_number) VALUES
  ('CCCC(=O)O[C@H]1[C@H]2c3cc4c(cc3CN3CCC(=C[C@@H]1OC(=O)CCC)[C@H]23)OCO4', 'Ratio IC50', 27.5),
  ('CCC(=O)O[C@H]1[C@H]2c3cc4c(cc3CN3CCC(=C[C@@H]1O)[C@H]23)OCO4', 'Ratio IC50', 16.6);

**Query** Consider the molecule "CC(=O)O[C@H]1[C@H]2c3cc4c(cc3CN3CCC(=C[C@@H]1O)[C@H]23)OCO4" and give its measured Ratio IC50.
**Result** 4.3

---

Test system: MRC5
Measurement notes: Cytotoxicity against human MRC5 cells after 7 days by MTT assay
Assay type: cell-based
Condition set: MRC5, 168 h
As shown below, each of these molecules has a reported IC50 value.

INSERT INTO results (molecule, target_entity, result_type, result) VALUES
  ('NCCCC(N)(C(=O)O)C(F)F (stereo not drawn) [EFLORNITHINE]', 'MRC5', 'IC50', '> 100 µg/mL'),
  ('CCC(=O)O[C@H]1[C@H]2c3cc4c(cc3CN3CCC(=C[C@@H]1OC(=O)CC)[C@H]23)OCO4', 'MRC5', 'IC50', '> 23.8 µg/mL');

Consider now this further molecule.
**Query** Recorded IC50 for Cc1ccc(C(=O)Nc2ccc(S(=O)(=O)O)c3cc(S(=O)(=O)O)cc(S(=O)(=O)O)c23)cc1NC(=O)c1cccc(NC(=O)Nc2cccc(C(=O)Nc3cc(C(=O)Nc4ccc(S(=O)(=O)O)c5cc(S(=O)(=O)O)cc(S(=O)(=O)O)c45)ccc3C)c2)c1 [SURAMIN] with MRC5, please?
**Result** > 100 µg/mL

Each recorded value in this set is attributed to ChEMBL document CHEMBL1139263.
